tested on: R275C/Slo1WT/beta2; assay: modulators of BK channel variants, profiling panel, selectivity assay, cell-based, U2OS BacMam, thallium flux, beta subunits (AID 1259406); details: at 30 µM;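 note: initial slope of Thallos dye fluorescence rise after thallium is added; log ratio against the mean of 0.3% DMSO vehicle wells on the same plate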
Each entry below carries its reported log fold change Tl+ flux.
Could you keep your reply to the number by itself?

MOLECULE | log fold change Tl+ flux
CC(C)NCC(O)COc1ccc(CC(N)=O)cc1 (stereo not drawn) | 0.0165
CC(=O)N=c1sc(S(N)(=O)=O)nn1C | -0.0121
CNCCC(Oc1ccc(C(F)(F)F)cc1)c1ccccc1 (stereo not drawn) | 0.0335
CC(CCc1ccccc1)NCC(O)c1ccc(O)c(C(N)=O)c1 (stereo not drawn) | -0.0367
COC(=O)C1=C(C)NC(C)=C(C(=O)OCCN(C)Cc2ccccc2)C1c1cccc([N+](=O)[O-])c1 (stereo not drawn) | 0.00258

Request: Report log fold change Tl+ flux for Cc1occc(=O)c1O please.
Result: 0.0112

Request: Form field: reported log fold change Tl+ flux of CC(C)n1c(/C=C/[C@@H](O)C[C@@H](O)CC(=O)O)c(-c2ccc(F)cc2)c2ccccc21
Result: 0.0615

Request: Entry CCN1CCN(C(=O)N[C@@H](C(=O)N[C@@H]2C(=O)N3[C@@H]2SC(C)(C)[C@@H]3C(=O)O)c2ccccc2)C(=O)C1=O : reported log fold change Tl+ flux = ?
Result: 0.0399
